Assay: Aged retention of fragrance components in powder detergent, GC/MS
Format: physicochemical
Conditions: free perfume in detergent base, 0.35 wt %; 1 month, 37° C., 70% relative humidity
Hi! Could you tag entries with Retention free perfume below 8% as met, and those at or above as not met? Much appreciated.

Dear colleague, could you confirm whether Retention free perfume of OCCc1ccccc1 falls below 8%? Thanks.
not met

Confirm or reject: Retention free perfume of CCCCCCOC(=O)c1ccccc1O [Hexyl salicylate] lies strictly below 8%
not met

Report whether reported Retention free perfume is lower than 8% (strictly) for CCC(C)(O)CCCC(C)C (stereo not drawn) [Tetrahydro linalool]
not met

A record lists C=C(C)[C@H]1CC=C(C)CC1 . Is its Retention free perfume below 8%?
met

Given the entry CC(C)=CCCC(C)CCO (stereo not drawn) , would its reported Retention free perfume be below 8%?
not met

Threshold test, Retention free perfume < 8%: CC(C=O)Cc1ccc(C(C)(C)C)cc1 (stereo not drawn)
met

API: query returns whether the compound falls strictly under 8% in Retention free perfume. Query: CC(=O)/C(C)=C/C1C(C)=CCCC1(C)C (stereo not drawn)
not met

For this compound, is Retention free perfume lower than 8%? CC(=O)OCc1ccccc1 [Benzyl acetate]
met

====

Assay: Aged retention of fragrance components in powder detergent, GC/MS
Type: physicochemical
Settings: composition as Example 1 without coating in detergent base; 1 month, 37° C., 70% relative humidity
measurement_label: Retention Without coating (%)
# value in %; strip the unit string

For CC(=O)OCc1ccccc1 [Benzyl acetate] , write its Retention Without coating.
26

Consider the molecule C=CC(C)(CCC=C(C)C)OC(C)=O (stereo not drawn) [Linalyl acetate] and give its recorded Retention Without coating.
39

Using known records, supply Retention Without coating for CC(=O)/C(C)=C/C1C(C)=CCCC1(C)C (stereo not drawn) [Gamma methyl ionone]
51
